# procedure.text: The drug is tested on Z-022 corresponding to mouse gut metagenome with ENA study accession number: PRJEB37062 and ENA sample accession number: ERS12561821 for biotransformation under anaerobic condition. The drug concentrations were measured over 9 timepoints collected between 0 and 24 hours of incubation by liquid-chromatography-coupled mass spectrometry (LC–MS); further: call rule not given here
# condition.summary: 2 µM
measured.metric: Bacterial Biotransformation

molecule: O=c1n(CCCN2CCN(c3cccc(Cl)c3)CC2)nc2ccccn12
endpoint.value: Compound metabolized

molecule: CN1CC(=O)N2[C@H](c3ccc4c(c3)OCO4)c3[nH]c4ccccc4c3C[C@@H]2C1=O
endpoint.value: Compound metabolized

molecule: CCOC(=O)[C@H](CCc1ccccc1)N[C@H]1CCc2ccccc2N(CC(=O)O)C1=O
endpoint.value: Compound metabolized

molecule: Cc1nc2n(c(=O)c1CCN1CCC(c3noc4cc(F)ccc34)CC1)CCCC2
endpoint.value: Compound metabolized

molecule: CC(=O)OCC(=O)[C@@]1(O)[C@@H](C)C[C@H]2[C@@H]3CCC4=CC(=O)C=C[C@]4(C)[C@@]3(F)[C@@H](O)C[C@@]21C [BETAMETHASONE ACETATE]
endpoint.value: Compound metabolized

molecule: Cc1nc(-c2ccc(OCC(C)C)c(C#N)c2)sc1C(=O)O
endpoint.value: Compound metabolized

Please find the next molecule below.
# Bacterial Biotransformation of CC(=O)CC(c1ccccc1)c1c(O)c2ccccc2oc1=O (stereo not drawn) = Compound metabolized

* * *

# procedure.text: The drug is tested on Z-013 corresponding to rabbit gut metagenome with ENA study accession number: PRJEB37062 and ENA sample accession number: ERS12561813 for biotransformation under anaerobic condition. The drug concentrations were measured over 9 timepoints collected between 0 and 24 hours of incubation by liquid-chromatography-coupled mass spectrometry (LC–MS)
# condition.summary: 2 µM
measured.metric: Bacterial Biotransformation

Known results for molecules:
molecule: CCCCC(=O)N(Cc1ccc(-c2ccccc2-c2nnn[nH]2)cc1)[C@H](C(=O)O)C(C)C
Bacterial Biotransformation: Compound NOT metabolized
//
molecule: CNC(=C[N+](=O)[O-])NCCSCc1ccc(CN(C)C)o1 [RANITIDINE]
Bacterial Biotransformation: Compound NOT metabolized
//
molecule: CCCCCOC(=O)Nc1nc(=O)n([C@@H]2O[C@H](C)[C@@H](O)[C@H]2O)cc1F [CAPECITABINE]
Bacterial Biotransformation: Compound metabolized
//
molecule: CN1CC(=O)N2[C@H](c3ccc4c(c3)OCO4)c3[nH]c4ccccc4c3C[C@@H]2C1=O
Bacterial Biotransformation: Compound NOT metabolized
//
molecule: Cc1ccccc1N1C(=O)c2cc(S(N)(=O)=O)c(Cl)cc2NC1C (centres undefined) [METOLAZONE]
Bacterial Biotransformation: Compound NOT metabolized
//
molecule: OC(CCN1CCCCC1)(c1ccccc1)C1CCCCC1 (centres undefined) [TRIHEXYPHENIDYL]
Bacterial Biotransformation: Compound NOT metabolized
//
molecule: CCC(=O)NCC[C@@H]1CCc2ccc3c(c21)CCO3 [RAMELTEON]
Bacterial Biotransformation: Compound metabolized
//
molecule: CN1CCc2c(c3ccccc3n2Cc2ccccc2)C1.CN1CCc2c(c3ccccc3n2Cc2ccccc2)C1.O=S(=O)(O)c1cccc2c(S(=O)(=O)O)cccc12
Bacterial Biotransformation: Compound NOT metabolized

# Bacterial Biotransformation of CNS(=O)(=O)Cc1ccc2[nH]cc(CCN(C)C)c2c1.O=C(O)CCC(=O)O [SUMATRIPTAN SUCCINATE] = Compound NOT metabolized

# Bacterial Biotransformation of C[C@@H]1C[C@H]2[C@@H]3CCC4=CC(=O)C=C[C@]4(C)[C@@]3(F)[C@@H](O)C[C@]2(C)[C@@]1(O)C(=O)CO [DEXAMETHASONE] = Compound NOT metabolized

# Bacterial Biotransformation of CCOC(=O)[C@H](CCc1ccccc1)N[C@@H](C)C(=O)N1[C@H](C(=O)O)C[C@@H]2CCC[C@@H]21 = Compound NOT metabolized

# Bacterial Biotransformation of CN1C(=O)CC(C)(c2ccccc2)C1=O (centres undefined) [METHSUXIMIDE] = Compound NOT metabolized
